B1: HDV Ribozyme (parent)
chain: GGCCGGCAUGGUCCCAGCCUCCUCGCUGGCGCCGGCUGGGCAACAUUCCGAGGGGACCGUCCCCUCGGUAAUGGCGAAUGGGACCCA

variants of: B1; assay: self-cleavage, relative activity (ratio to wild type); higher = more cleavage; co-transcriptional
Label MET when self-cleavage is at or above 0.2; anything below gets NOT MET.

GGCCGGCAUGGUCCCAGCCUCCUCGCUGGCGCCGGCUGGGCAACAUUCCGCGGGGACCGUCCCCUCGGUAACGGCGAAUGGGACCCA [A51C U72C]: MET
GGCCGGCAUGGUCCCAGCCUCCUCGCUGGCGCCGGCUGGGCAACAUUCCGAGGGGACCGUCCCCUCGCUAAUGGCGACUGGGACCCA [G68C A78C]: MET
GGCCGGCAUGGUCCCAGCCUCCUCGCUGGCGCCGGCUGGGCAACAUUCCGAGGGGACCGUCCCCUCGGUAAUAGCGAAUGGGAGCCA [G73A C84G]: MET

# input Threshold query (self-cleavage >= 0.2) on GGCCGGCAUGGUCCCAGCCUCCUCGCUGGCGCCGGCUGGCCAACAUUCCGAGGGGACCGUCCCCUCGGUAAUGGCGAACGGGACCCA [G40C U79C]
# output NOT MET

# input Now the same for GGCCGGGAUGGUCCCAGCCUCCUCGUUGGCGCCGGCUGGGCAACAUUCCGAGGGGACCGUCCCCUCGGUAAUGGCGAAUGGGACCCA [C7G C26U]
# output MET

# input // query: GGCCGGCAUGGUCCCAGCCUCCUCGCAGGCGCCGGCUGGGCAACAUUCCGAGGGGACCGUCCCCUCGGUAAUGGCGAAUGGCACCCA [U27A G82C]
# output MET

# input Now the same for GGCCGACAUGGUCCCAGCCUCCUCGCUGGCUCCGGCUGGGCAACAUUCCGAGGGGACCGUCCCCUCGGUAAUGGCGAAUGGGACCCA [G6A G31U]
# output MET

# input And for GGCCGGCAUGGUGCCAGCCUCCUCUCUGGCGCCGGCUGGGCAACAUUCCGAGGGGACCGUCCCCUCGGUAAUGGCGAAUGGGACCCA [C13G G25U] ?
# output MET

# input Same read-out for GGCCGACAUGAUCCCAGCCUCCUCGCUGGCGCCGGCUGGGCAACAUUCCGAGGGGACCGUCCCCUCGGUAAUGGCGAAUGGGACCCA [G6A G11A] ?
# output NOT MET

# input Proceed to GGCCGGCAUGGUGCCAGCCUCCUCGCUGGCGCCGGCUGGGCAACAUUCCGAGGGGGCCGUCCCCUCGGUAAUGGCGAAUGGGACCCA [C13G A56G]
# output NOT MET

# input Similarly, GGCCGGCAUGGUCCCAGCCUCCUCGCUGGCCCCGGCUGGGCAACAUUCCGAGGGGACCGUCCCCUCGGUAAUGGCGAAAGGGACCCA [G31C U79A] ?
# output NOT MET

# input And for GGCCGGCAUGGUCCCAGCCUCCUCGCUGGCGCCGGCUGGGCAAAAUUACGAGGGGACCGUCCCCUCGGUAAUGGCGAAUGGGACCCA [C44A C48A] ?
# output MET

# input Try the variant GGCCGGCAUGGUCCCGGCCUCCUCGCUGGCGCCGGCUGGGCAACAUUCCGAGGGGACCGUCCACUCGGUAAUGGCGAAUGGGACCCA [A16G C63A]
# output MET
